Below, each of the compounds is paired with its reported growth inhibition value.
assay: NCI Yeast Anticancer Drug Screen. Data for the sgs1 mgt1 strain (AID 161);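 further: 0% = growth of cultures given vehicle only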; conditions: S. cerevisiae sgs1 mgt1 strain, at 50.0 µM (retest, dose inferred, filed as 5.0), hits give high values
This is part of a sample that, as a whole, favours compounds with a hit. Of some 79,000 tested, about 15% had one in any assay. Where a SMILES comes first, the peptide text is derived from it. [ ]: non-standard residue; d: D form. ξ: configuration not given here. ξD = NC(CC(=O)O)C(=O)O
Hi! Could you send only the number? It should be in %, unit omitted.

Observe how each entry below is paired with its result.
| COMPOUND | growth inhibition (%) |
| --- | --- |
| CCCCN(CCCC)CCCCCCCCCCO | 1 |
| NCC(=O)NC(CC(=O)O)C(=O)O (stereo not given) (H-Gly-[ξD]-OH) | 20 |

Proceeding to the next compound to report its growth inhibition.
Value of growth inhibition reported for the compound CCCC[n+]1c(/C=C\c2c(OC)cc(OC)cc2OC)ccc2ccccc21 is 99
